// provenance: the supplement of paper PMC11061612

system: NCCIT (Other Solid Carcinomas); test: combination Emax (second highest fraction inhibited in the dose matrix, 72 h); higher = more inhibition; extreme values may be limits of the assay
Recorded combination Emax values for a group of compounds are listed next.
Hey, just send me the number, nothing else.

Compound: COc1nnc2ccc(N3CCC(c4ccc(OCCN5CCN(C)C(=O)[C@H]5C)cc4)CC3)nn12 [AZD5153] + CCN(CCO)CCCOc1ccc2c(Nc3cc(CC(=O)Nc4cccc(F)c4)[nH]n3)ncnc2c1 [AZD2811] (first compound max 1 µM, 7x7, partner max 1 µM)
Reading: 0.832

Task item: Bench note: what combination Emax did CCN(CCO)CCCOc1ccc2c(Nc3cc(CC(=O)Nc4cccc(F)c4)[nH]n3)ncnc2c1 [AZD2811] + O=C(c1cc(Cc2n[nH]c(=O)c3ccccc23)ccc1F)N1CCN(C(=O)C2CC2)CC1 [Olaparib] (first compound max 1 µM, 7x7, partner max 10 µM) show?
Reply: 0.226

Task item: Now this one: CN(CCO)CC[C@H](CSc1ccccc1)Nc1ccc(S(=O)(=O)NC(=O)c2ccc(N3CCC([C@@H](O)c4ccccc4-c4ccc(Cl)cc4)CC3)cc2)cc1S(=O)(=O)C(F)(F)F [AZD4320] + Cn1cnc2c(F)c(Nc3ccc(Br)cc3Cl)c(C(=O)NOCCO)cc21 [Selumetinib] (first compound max 1 µM, 7x7, partner max 3 µM)
Reply: 0.224

Task item: Now this one: Cc1c2c(nn1C)CSCc1cc(n(C)n1)CSc1cc(c3ccccc3c1)OCCCc1c(C(=O)O)n(C)c3c-2c(Cl)ccc13 [AZD5991] + CS(=O)(=O)CCNCc1ccc(-c2ccc3ncnc(Nc4ccc(OCc5cccc(F)c5)c(Cl)c4)c3c2)o1 [Lapatinib] (first compound max 1 µM, 7x7, partner max 10 µM)
Reply: 0.635

Task item: Now this one: CC(=O)Nc1cccc(-n2c(=O)n(C3CC3)c(=O)c3c(Nc4ccc(I)cc4F)n(C)c(=O)c(C)c32)c1 [Trametinib] + Cc1nc(-c2cn3c(n2)-c2ccc(-c4cnn(C(C)(C)C(N)=O)c4)cc2OCC3)n(C(C)C)n1 [Taselisib] (first compound max 1 µM, 7x7, partner max 10 µM)
Reply: 0.73

Task item: Now this one: C[C@@H]1COCCN1c1cc(C2([S@](C)(=N)=O)CC2)nc(-c2ccnc3[nH]ccc23)n1 [AZD6738] + C1CC(C1)(C(=O)[O-])C(=O)[O-].N.N.[Pt+2] [Carboplatin] (first compound max 10 µM, 7x7, partner max 10 µM)
Reply: 0.531

Task item: Now this one: CN(CCO)CC[C@H](CSc1ccccc1)Nc1ccc(S(=O)(=O)NC(=O)c2ccc(N3CCC([C@@H](O)c4ccccc4-c4ccc(Cl)cc4)CC3)cc2)cc1S(=O)(=O)C(F)(F)F [AZD4320] + C[C@@H](Nc1cc(F)cc(F)c1)c1cc(C(=O)N(C)C)cc2c(=O)cc(N3CCOCC3)oc12 [AZD8186] (first compound max 1 µM, 7x7, partner max 3 µM)
Reply: 0.329

Task item: Now this one: Cn1cnc2c(F)c(Nc3ccc(Br)cc3Cl)c(C(=O)NOCCO)cc21 [Selumetinib] + C=CCn1c(=O)c2cnc(Nc3ccc(N4CCN(C)CC4)cc3)nc2n1-c1cccc(C(C)(C)O)n1 [AZD1775] (first compound max 10 µM, partner max 1 µM)
Reply: 0.773

Task item: Now this one: CC1(C)CCC(CN2CCN(c3ccc(C(=O)NS(=O)(=O)c4ccc(NCC5CCOCC5)c([N+](=O)[O-])c4)c(Oc4cnc5[nH]ccc5c4)c3)CC2)=C(c2ccc(Cl)cc2)C1 [Venetoclax] + CCN(CCO)CCCOc1ccc2c(Nc3cc(CC(=O)Nc4cccc(F)c4)[nH]n3)ncnc2c1 [AZD2811] (first compound max 1 µM, 7x7, partner max 1 µM)
Reply: 0.282
